assay: Acute toxicity, single oral administration; details: mouse, in vivo; single oral administration to mice; read-out: Toxicity LD 50
Quick reference for LD50 among some compounds
Quantity Name: LD50

[[record]]
compound = "COc1ccc(C(=O)C#CC(=O)O)c(OC)c1OC"
result = "500 to 1000 mg/kg"

[[record]]
compound = "COc1ccc(C(=O)C#CCO)cc1"
result = "40 to 80 mg/kg"

[[record]]
compound = "CCOC(C)OCC#CC(=O)c1ccc(F)cc1 (stereo not drawn)"
result = "80 to 156 mg/kg"

[[record]]
compound = "COC(=O)C#CC(=O)c1ccc(OC)c(OC)c1OC"
result = "625 to 1250 mg/kg"

[[record]]
compound = "COc1cc(C(=O)C#CCO)cc(OC)c1OC"
result = "156 to 312 mg/kg"

[[record]]
compound = "COCCOCCOC(=O)C#CC(=O)c1ccc2c(c1)OCO2"
result = "1250 to 2500 mg/kg"


* * *

Below, each entry is listed with its recorded ED50.
system: gastric acid secretion; assay: Gastric acid secretion-inhibiting activity (pylorus ligation, Shay et al.); type: in vivo; settings: Rattus norvegicus; male pylorus-ligated rats, intraduodenal, 5 h; 50% decrease of the secretion; read-out: Gastric acid secretion-inhibition, ID 50
Quantity Name: ED50 (mg/kg)

[[record]]
compound = "COC(=O)C#CC(=O)c1cc(OC)c(OC)c(OC)c1 [N]"
comparative_sign = ">"
quantitative_readout = 100

[[record]]
compound = "COc1cc(C(=O)C#CC(C)O)cc(OC)c1OC (stereo not drawn) [V]"
comparative_sign = "="
quantitative_readout = 3.1

[[record]]
compound = "COc1cc(C(=O)C#CCO)cc(OC)c1OC [B]"
comparative_sign = "="
quantitative_readout = 18

[[record]]
compound = "COc1ccc(C(=O)C#CCO)c(OC)c1OC [X]"
comparative_sign = "="
quantitative_readout = 4

[[record]]
compound = "COCCOCCOC(=O)C#CC(=O)c1ccc2c(c1)OCO2 [J]"
comparative_sign = ">"
quantitative_readout = 100

[[record]]
compound = "CCOC(C)OCC#CC(=O)c1ccc(OC)c(OC)c1OC (stereo not drawn) [W]"
comparative_sign = "="
quantitative_readout = 9


* * *

test: Acute toxicity, single oral administration; settings: mouse, in vivo, po; read-out: Toxicity LD 50
Quantity Name: LD50

[[record]]
mol_smiles = "O=C(C#CCO)c1ccc2c(c1)OCO2"
quantity_name = "LD50"
result = "80 to 156 mg/kg"


* * *

test system: gastric acid secretion; assay: Gastric acid secretion-inhibiting activity (pylorus ligation, Shay et al.); type: in vivo; conditions: Rattus norvegicus; male pylorus-ligated rats, intraduodenal, 5 h; 50% decrease of the secretion; read-out: Gastric acid secretion-inhibition, ID 50
Quantity Name: ED50

[[record]]
mol_smiles = "O=C(O)C#CC(=O)c1ccc2c(c1)OCO2"
result = "42 mg/kg"

[[record]]
mol_smiles = "COc1cc(C(=O)C#CC(=O)N(C)C)cc(OC)c1OC"
result = "28 mg/kg"

[[record]]
mol_smiles = "COc1cc(C(=O)C#CC(=O)O)cc(OC)c1OC"
result = "56 mg/kg"

[[record]]
mol_smiles = "CSc1ccc(C(=O)C#CCO)cc1"
result = "2.7 mg/kg"


* * *

tested on: lesions of the mucous membrane of the stomach; assay: Ethanol test (mucosa-protective activity); type: in vivo; conditions: Rattus norvegicus; male rats, oral 30 min before absolute ethanol; dosage reducing number of lesions by 50%; read-out: Ethanol Test ID 50
ED50 less than 3 mg/kg is Condition met; ED50 greater than or equal to 3 mg/kg is Condition not met.

[[record]]
compound = "COC(=O)C#CC(=O)c1cc(OC)c(OC)c(OC)c1"
assigned_label = "Condition not met"

[[record]]
compound = "COc1cc(C(=O)C#CC(=O)N(C)C)cc(OC)c1OC"
assigned_label = "Condition met"

[[record]]
compound = "O=C(O)C#CC(=O)c1ccc2c(c1)OCO2"
assigned_label = "Condition met"

[[record]]
compound = "Cc1ccc(C(=O)C#CCO)cc1"
assigned_label = "Condition met"

[[record]]
compound = "COC(=O)C#CC(=O)c1ccc(O)cc1 [E, methyl 3-(4-hydroxybenzoyl)propiolate]"
assigned_label = "Condition met"

[[record]]
compound = "COc1cc(C(=O)C#CC(=O)O)cc(OC)c1OC"
assigned_label = "Condition not met"

